Could you please report measured pIC50 for the items listed next?
- assayed_system: Bone morphogenetic protein 4 (Homo sapiens, UniProt P12644)
- test_protocol: Inhibition of BMP4-induced phosphorylation of SMAD 1/5/8 by cytoblot cellular ELISA
pIC50: −log10 of the molar value.

Prompt line: Form: Entry = "COc1ccc(-c2cnc3c(-c4ccnc5ccccc45)ccn3c2)cc1" | System = Bone morphogenetic protein 4 (Homo sapiens, UniProt P12644) | pIC50 = ____
Response line: < 4.70

Prompt line: Form: Entry = "c1cc2ncc(-c3ccc(OCCN4CCCCC4)cc3)cn2n1" | System = Bone morphogenetic protein 4 (Homo sapiens, UniProt P12644) | pIC50 = ____
Response line: < 4.70

Prompt line: Form: Entry = "c1cncc(-c2cnn3cc(-c4ccc(OCCN5CCCCC5)cc4)cnc23)c1" | System = Bone morphogenetic protein 4 (Homo sapiens, UniProt P12644) | pIC50 = ____
Response line: < 4.70

Prompt line: Form: Entry = "COc1ccc(-c2cnc3c(-c4ccnc5cc(Cl)ccc45)cnn3c2)cc1" | System = Bone morphogenetic protein 4 (Homo sapiens, UniProt P12644) | pIC50 = ____
Response line: 6.30

Prompt line: Form: Entry = "Cc1nn2cc(-c3ccc(OCCN4CCN(C)CC4)cc3)cnc2c1-c1ccncc1" | System = Bone morphogenetic protein 4 (Homo sapiens, UniProt P12644) | pIC50 = ____
Response line: < 4.70

Prompt line: Form: Entry = "COC(=O)c1cc(-c2ccnc3ccccc23)c2ncc(-c3ccc(OC)cc3)cn12" | System = Bone morphogenetic protein 4 (Homo sapiens, UniProt P12644) | pIC50 = ____
Response line: < 4.70

Prompt line: Form: Entry = "c1ccc(-c2cnn3cc(-c4ccc(OCCN5CCCCC5)cc4)cnc23)cc1" | System = Bone morphogenetic protein 4 (Homo sapiens, UniProt P12644) | pIC50 = ____
Response line: < 4.70

Prompt line: Form: Entry = "CCN(CC)CCOc1ccc(-c2cnc3c(-c4ccncc4)cnn3c2)cc1" | System = Bone morphogenetic protein 4 (Homo sapiens, UniProt P12644) | pIC50 = ____
Response line: 6.30

Prompt line: Form: Entry = "c1cc(-c2cnn3cc(-c4ccc(OCCN5CCOCC5)cc4)cnc23)ccn1" | System = Bone morphogenetic protein 4 (Homo sapiens, UniProt P12644) | pIC50 = ____
Response line: 5.70

Prompt line: Form: Entry = "c1cc(-c2cnn3cc(-c4ccc(OCCN5CCCCC5)cc4)cnc23)ccn1" | System = Bone morphogenetic protein 4 (Homo sapiens, UniProt P12644) | pIC50 = ____
Response line: 6.37

Prompt line: Form: Entry = "COc1ccc(-c2cnc3c(-c4ccc5ncccc5c4)cnn3c2)cc1" | System = Bone morphogenetic protein 4 (Homo sapiens, UniProt P12644) | pIC50 = ____
Response line: < 4.70

Prompt line: Form: Entry = "COc1ccc(-c2cnc3c(-c4cccc5cccnc45)cnn3c2)cc1" | System = Bone morphogenetic protein 4 (Homo sapiens, UniProt P12644) | pIC50 = ____
Response line: < 4.70

Prompt line: Form: Entry = "COc1ccc(-c2cnc3c(-c4cnc5ccccc5c4)cnn3c2)cc1" | System = Bone morphogenetic protein 4 (Homo sapiens, UniProt P12644) | pIC50 = ____
Response line: < 4.70
